# credit: patent US11566007B2

Measured IC50 accompanies every entry in the list below.
biological target: NRAS Q61R (Homo sapiens (Human), UniProt P01111+P62937, Q61R); test: Ras-Raf (BRAF RBD) disruption / FRET / MOA assay, NRAS Q61R; format: biochemical; conditions: NRAS Q61R; Ras-Raf disruption/FRET/MOA assay; read-out: IC50* NRAS Q61R FRET data
Sequence (P01111 whole entry Q61R, one chain of several): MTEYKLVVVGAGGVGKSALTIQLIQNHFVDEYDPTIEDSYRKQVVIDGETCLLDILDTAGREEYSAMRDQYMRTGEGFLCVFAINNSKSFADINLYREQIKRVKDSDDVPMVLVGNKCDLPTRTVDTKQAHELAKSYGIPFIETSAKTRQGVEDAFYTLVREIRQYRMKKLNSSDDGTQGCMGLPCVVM

In the examples that follow, each entry is paired with its recorded IC50.
# compound, observed-value
records = [
    ("C=CC(=O)N(C)CCN1CCN(C(=O)N(C)[C@H](C(=O)N[C@H]2Cc3cccc(c3)-c3ccc4c(c3)c(c(-c3cccnc3[C@H](C)OC)n4CC)CC(C)(C)COC(=O)[C@@H]3CCCN(N3)C2=O)C(C)C)C[C@@H]1C (atropisomer, axis not shown)", "0.1 to 1 µM"),
    ("C=CC(=O)N1CCO[C@H]2CN(C(=O)N(C)[C@H](C(=O)N[C@H]3Cc4cccc(n4)-c4ccc5c(c4)c(c(-c4cccnc4[C@H](C)OC)n5CC)CC(C)(C)COC(=O)[C@@H]4CCCN(N4)C3=O)C(C)C)C[C@H]21 (atropisomer, axis not shown)", "0.1 to 1 µM"),
    ("C=CC(=O)N1CCO[C@@H]2CCN(C(=O)N(C)[C@H](C(=O)N[C@H]3Cc4nc(cs4)-c4ccc5c(c4)c(c(-c4cccnc4[C@H](C)OC)n5CC)CC(C)(C)COC(=O)[C@@H]4CCCN(N4)C3=O)C(C)C)C[C@@H]21 (atropisomer, axis not shown)", "0.1 to 1 µM"),
    ("C=CC(=O)N1CC[C@H](C(=O)N(C)[C@H](C(=O)N[C@H]2Cc3nc(ns3)-c3ccc4c(c3)c(c(-c3cncnc3)n4CC)CC(C)(C)COC(=O)[C@@H]3CCCN(N3)C2=O)C(C)C)C1", "> 10 µM"),
    ("C=CS(=O)(=O)N1CC2(CCN([C@H](C(=O)N[C@H]3Cc4cc(O)cc(c4)-c4ccc5c(c4)c(c(-c4cccnc4[C@H](C)OC)n5CC)CC(C)(C)COC(=O)[C@@H]4CCCN(N4)C3=O)C(C)C)C2=O)C1 (atropisomer, axis not shown)", "0.1 to 1 µM"),
    ("C=CC(=O)N1CCCC2(CCN(C(=O)N(C)[C@H](C(=O)N[C@H]3Cc4nc(cs4)-c4ccc5c(c4)c(c(-c4cccnc4[C@H](C)OC)n5CC)CC(C)(C)COC(=O)[C@@H]4CCCN(N4)C3=O)C(C)C)CC2)C1 (atropisomer, axis not shown)", "0.1 to 1 µM"),
    ("C=CC(=O)NCCN1CCN(C(=O)N(C)[C@H](C(=O)N[C@H]2Cc3nc(cs3)-c3ccc4c(c3)c(c(-c3cccnc3[C@H](C)OC)n4CC)CC(C)(C)COC(=O)[C@@H]3CCCN(N3)C2=O)C(C)C)CC1 (atropisomer, axis not shown)", "0.1 to 1 µM"),
    ("C=CC(=O)N1CC[C@H](C(=O)N(C)[C@H](C(=O)N[C@H]2Cc3cc(O)cc(c3)-c3cc4c(c(-c5ccccc5CCOC)n(CC)c4cn3)CC(C)(C)COC(=O)[C@@H]3CCCN(N3)C2=O)C(C)C)C1", "> 10 µM"),
    ("C=CC(=O)N(C)[C@H]1CCN(C(=O)N(C)[C@H](C(=O)N[C@H]2Cc3nc(cs3)-c3ccc4c(c3)c(c(-c3cccnc3[C@H](C)OC)n4CC)CC(C)(C)COC(=O)[C@@H]3CCCN(N3)C2=O)C(C)C)C1 (atropisomer, axis not shown)", "0.1 to 1 µM"),
    ("C=CC(=O)N1CC[C@H](C(=O)N(C)[C@H](C(=O)N[C@H]2Cc3cccc(c3)-c3ccc4c(c3)c(c(-c3cc5c(nc3[C@H](C)OC)CCN(C)C5)n4CC)CC(C)(C)COC(=O)[C@@H]3CCCN(N3)C2=O)C(C)C)C1 (atropisomer, axis not shown)", "1 to 10 µM"),
]

Entry CCn1c(-c2cccnc2[C@H](C)OC)c2c3cc(ccc31)-c1cccc(n1)C[C@H](NC(=O)[C@H](C(C)C)N(C)C(=O)N1CCC13CN(C(=O)C#CC(C)(C)N(C)C)C3)C(=O)N1CCC[C@H](N1)C(=O)OCC(C)(C)C2 (atropisomer, axis not shown) — recorded IC50 = 1 to 10 µM

Entry C=CC(=O)N1CC[C@H](C(=O)N(C)[C@H](C(=O)N[C@H]2Cc3cc(O)cc(c3)-c3ccc4c(c3)c(c(-c3cccnc3[C@H](CC)OC)n4CC)CC(C)(C)COC(=O)[C@@H]3CCCN(N3)C2=O)C(C)C)C1 (atropisomer, axis not shown) — recorded IC50 = 0.1 to 1 µM

Entry C=CC(=O)N1CC[C@H](C(=O)N(C)[C@H](C(=O)N[C@H]2Cc3cc(O)cc(c3)-c3ccc4c(c3)c(c(-c3cccnc3[C@@H]3CCCO3)n4CC)CC(C)(C)COC(=O)[C@@H]3CCCN(N3)C2=O)C(C)C)C1 (atropisomer, axis not shown) — recorded IC50 = 0.1 to 1 µM

Entry CO[C@@H](C)c1ncccc1-c1c2c3cc(ccc3n1CC(F)(F)F)-c1csc(n1)C[C@H](NC(=O)CCOC1CN(C(=O)C#CC(C)(C)N(C)C)C1)C(=O)N1CCC[C@H](N1)C(=O)OCC(C)(C)C2 (atropisomer, axis not shown) — recorded IC50 = 1 to 10 µM

Entry C=CC(=O)N1CC(OC[C@H](C(=O)N[C@H]2Cc3cccc(c3)-c3ccc4c(c3)c(c(-c3cccnc3[C@H](C)OC)n4CC(F)(F)F)CC(C)(C)COC(=O)[C@@H]3CCCN(N3)C2=O)C(C)C)C1 (atropisomer, axis not shown) — recorded IC50 = 1 to 10 µM

----------
molecular target: KRAS G12V (Homo sapiens (Human), UniProt P01116+P62937, G12V); experiment: Ras-Raf (BRAF RBD) disruption / FRET / MOA assay, KRAS G12V; format: biochemical; settings: read-out: IC50* KRAS G12V FRET data
Sequence (P01116-2 other isoform, or with tags, fused parts or gaps G12V, one chain of several): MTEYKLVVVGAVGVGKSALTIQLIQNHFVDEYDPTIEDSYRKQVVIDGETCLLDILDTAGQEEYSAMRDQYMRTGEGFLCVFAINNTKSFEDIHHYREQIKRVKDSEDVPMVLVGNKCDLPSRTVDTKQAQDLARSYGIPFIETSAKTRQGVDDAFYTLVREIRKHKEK
readout-name: IC50

# compound, observed-value
measured = [
    ("C=CC(=O)N1CCCN(C(=O)N(C)[C@H](C(=O)N[C@H]2Cc3cc(O)cc(c3)-c3ccc4c(c3)c(c(-c3cccnc3[C@H](C)OC)n4CC)CC(C)(C)COC(=O)[C@@H]3CCCN(N3)C2=O)C(C)C)CC1 (atropisomer, axis not shown) [Example A265]", "0.01 to 0.1 µM"),
]

Next, consider the following compound.
The compound C=CC(=O)N(C)[C@H]1C[C@H](N(C)C(=O)N(C)[C@H](C(=O)N[C@H]2Cc3nc(cs3)-c3ccc4c(c3)c(c(-c3cccnc3[C@H](C)OC)n4CC)CC(C)(C)COC(=O)[C@@H]3CCCN(N3)C2=O)C(C)C)C1 (atropisomer, axis not shown) [Example A712] , when measured on KRAS G12V (Homo sapiens (Human), UniProt P01116+P62937, G12V), yielded IC50 of 0.1 to 1 µM

----------
Measured IC50 accompanies every entry in the list below.
molecular target: K-Ras G13C (Homo sapiens (Human), UniProt P01116+P62937, G13C); test: Ras-Raf (BRAF RBD) disruption / FRET / MOA assay, KRAS G13C; type: biochemical; settings: KRAS G13C; Ras-Raf disruption/FRET/MOA assay; read-out: IC50* KRAS G13C FRET data
Sequence (P01116-2 other isoform, or with tags, fused parts or gaps G13C): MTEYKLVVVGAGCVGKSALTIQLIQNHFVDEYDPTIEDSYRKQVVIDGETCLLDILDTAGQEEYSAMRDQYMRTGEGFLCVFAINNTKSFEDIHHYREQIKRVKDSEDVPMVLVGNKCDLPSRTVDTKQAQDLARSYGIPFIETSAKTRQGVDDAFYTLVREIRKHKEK
Sequence (P62937 whole entry): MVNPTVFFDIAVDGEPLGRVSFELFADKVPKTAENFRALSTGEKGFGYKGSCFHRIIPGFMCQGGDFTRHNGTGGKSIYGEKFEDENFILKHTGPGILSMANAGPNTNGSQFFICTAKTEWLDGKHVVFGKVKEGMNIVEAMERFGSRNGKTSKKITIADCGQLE

In the examples that follow, each entry is paired with its recorded IC50.
# compound, IC50
measured = [
    ("C=CC(=O)N1CC[C@H](C(=O)N2CC[C@H](C)[C@H]2C(=O)N[C@H]2Cc3cccc(c3)-c3ccc4c(c3)c(c(-c3cccnc3[C@H](C)OC)n4CC)CC(C)(C)COC(=O)[C@@H]3CCCN(N3)C2=O)C1 (atropisomer, axis not shown)", "1000 to 10000 nM"),
    ("C=CC(=O)N(C)C[C@H]1CCN1C(=O)N(C)[C@H](C(=O)N[C@H]1Cc2nc(cs2)-c2ccc3c(c2)c(c(-c2cccnc2[C@H](C)OC)n3CC)CC(C)(C)COC(=O)[C@@H]2CCCN(N2)C1=O)C(C)C (atropisomer, axis not shown)", "100 to 1000 nM"),
    ("C=CC(=O)N1CC[C@H](C(=O)N(C)[C@H](C(=O)N[C@H]2Cc3nc(cs3)-c3ccc4c(n3)c(c(-c3cccnc3[C@H](C)OC)n4CC)CC(C)(C)COC(=O)[C@@H]3CCCN(N3)C2=O)C(C)C)C1", "1000 to 10000 nM"),
    ("C=CC(=O)N1CCC2(CCN(C(=O)N(C)[C@H](C(=O)N[C@H]3Cc4nc(cs4)-c4ccc5c(c4)c(c(-c4cccnc4[C@H](C)OC)n5CC)CC(C)(C)COC(=O)[C@@H]4CCCN(N4)C3=O)C(C)C)CC2)C1 (atropisomer, axis not shown)", "10 to 100 nM"),
]

Entry CCn1c(-c2cccnc2[C@H](C)OC)c2c3cc(ccc31)-c1csc(n1)C[C@H](NC(=O)[C@@H](COC1CN(C(=O)C#CC(C)(C)N(C)C)C1)OC)C(=O)N1CCC[C@H](N1)C(=O)OCC(C)(C)C2 (atropisomer, axis not shown) — recorded IC50 = 100 to 1000 nM

Entry C=CC(=O)N1C[C@@H](C(=O)N(C)[C@H](C(=O)N[C@H]2Cc3cc(O)cc(c3)-c3ccc4c(c3)c(c(-c3cccnc3COC)n4CC)CC(C)(C)COC(=O)[C@@H]3CCCN(N3)C2=O)C(C)C)C[C@H]1C — recorded IC50 = 100 to 1000 nM

Entry CCn1c(-c2cccnc2COC)c2c3cc(ccc31)-c1cc(O)cc(c1)C[C@H](NC(=O)[C@H](C(C)C)N(C)C(=O)[C@@H]1CCN(C(=O)C#CC(C)(C)N(C)C)C1)C(=O)N1CCC[C@H](N1)C(=O)OCC(C)(C)C2 — recorded IC50 = 100 to 1000 nM

Entry C=CC(=O)N1CC[C@H](C(=O)N(C)[C@H](C(=O)N[C@H]2Cc3cccc(c3)-c3ccc4c(c3)c(c(-c3cc(C5CN(C)C5)cnc3[C@H](C)OC)n4CC)CC(C)(C)COC(=O)[C@@H]3CCCN(N3)C2=O)C(C)C)C1 (atropisomer, axis not shown) — recorded IC50 = 1000 to 10000 nM

Entry CCn1c(-c2cccnc2[C@H](C)OC)c2c3cc(ccc31)-c1csc(n1)C[C@H](NC(=O)[C@H](C(C)C)N1CCC3(CN(C(=O)C#CC(C)(C)N(C)C)C3)C1=O)C(=O)N1CCC[C@H](N1)C(=O)OCC(C)(C)C2 (atropisomer, axis not shown) — recorded IC50 = 100 to 1000 nM
